Test system: rodent lifetime carcinogenesis bioassay, tumor incidence TD50
Test: carcinogenic potency in animals, long-term in vivo studies, CPDB compilation (AID 1745844)
Settings: rat; strain Fischer 344; females; by gavage; site: urinary bladder; lesion: transitional-cell carcinoma; dosed 77 weeks; study length 109 weeks
PROPERTY_LABEL: TD50

Entry COc1ccc(N)c(C)c1 — recorded TD50 = 769 mg/kg/day

====

Tested on: rodent lifetime carcinogenesis bioassay, tumor incidence TD50
Assay: carcinogenic potency in animals, long-term in vivo studies, CPDB compilation (AID 1745844)
Settings: rat; strain Sprague-Dawley; males; inhaled; site: lung; lesion: adenoma; dosed 86 weeks; study length 86 weeks
PROPERTY_LABEL: TD50 (mg/kg/day)
Please respond with the number in mg/kg/day and leave the unit unwritten.

Measured TD50 of O=[O+][O-] : 0.204
